Listed here are compounds together with their documented IC50.
- Test system: IL-2
- TEST_DESCRIPTION: Inhibition of IL-2 production in phytohemagglutinin-activated human PBMCs (sandwich ELISA)
- Format: cell-based
- APPLIED_CONDITIONS: Homo sapiens, PBMC, 46 h, approximately 46 hours, read-out: IL-2 pIC50 (converted)
MEASUREMENT_NAME: IC50 (nM)

                              sample_smiles  measurement_name  recorded_value
0  COc1ccc(OC)c(/C=C2\C(=O)Nc3ccc(Cl)cc32)c1              IC50              20
1  CN1CCN(c2c(/C=C3\C(=O)Nc4ccccc43)c3ccccc3n2C)CC1              IC50            79.4
2       O=C1Nc2ccccc2/C1=C/c1ccc(Cl)c(Cl)c1              IC50              20
3  COc1ccc(OC)c(/C=C2\C(=O)N(OC)c3ccccc32)c1              IC50              20
